# MEASUREMENT DESCRIPTION: Cytotoxicity against human HeLa cells treated for 8 days measured post-last dose by Celltiter-glo luminescent assay
# Assay type: cell-based
Recorded CC50 at 192 h, one value per entry.

INSERT INTO measurements (compound, readout_value) VALUES
  ('CC(C)OC(=O)[C@H](C)N[P@](=O)(OC[C@@]1(F)O[C@@H](n2ccc(=O)[nH]c2=O)[C@](C)(O)[C@@H]1O)Oc1ccccc1 [ADAFOSBUVIR]', '> 100 µM');

Please turn your attention to the following entry.
What value of measured CC50 at 192 h is listed for COc1nc(N)nc2c1ncn2[C@@H]1O[C@H](COP(=O)(N[C@@H](C)C(=O)OCC(C)(C)C)Oc2cccc3ccccc23)[C@@H](O)[C@@]1(C)O (some centres not stated) [BMS-986094] ?
13.4 µM
